Origin of values: paper PMC4336329

Target: human ether-à-go-go-related gene (hERG) potassium channel (human)
Experiment: primary screen, population patch clamp on CHO cells stably expressing hERG; higher = less effect of the substance
Hit rate of the full screen: of about 310,000 compounds, about 14,000 (4.5%) showed an effect of 50% or more. The effect is printed as a negative number. This is one part of a sample in which strong results are shown more often than they occur.
Examples of molecules with documented hERG current change (%, negative = inhibition) at 10uM follow.
Unit % implied. Number only.

{"columns": ["MOLECULE", "TARGET_DESC", "EXPERIMENTAL_RESULT"],
 "data": [
  ["O=C(CCCC(=O)N(CC(=O)NC1CCCC1)c1ccc(F)c(Cl)c1)Nc1ccccn1", "human ether-à-go-go-related gene (hERG) potassium channel (human)", -9.24],
  ["CCOc1cc(C(=O)N2CCC(CC3CC(c4ccc(Cl)cc4)=NO3)(C(=O)NCC3CCCCC3)CC2)cc(OCC)c1OCC (centres unmarked)", "human ether-à-go-go-related gene (hERG) potassium channel (human)", 1.25],
  ["Cc1ccc2[nH]c(=O)c(CN(CCO)C(=O)NCc3ccccc3)cc2c1", "human ether-à-go-go-related gene (hERG) potassium channel (human)", 7.55]
]}

# lookup: hERG current change (%, negative = inhibition) at 10uM of `CCOC(=O)c1c(-c2ccc(OC)cc2)oc2ccc(O)cc12`
13.1

Looking for the measured hERG current change (%, negative = inhibition) at 10uM of `CCN(CC)c1ccc(/C=N/NC(=O)CNC(=O)c2ccc3c(c2)OCCO3)cc1` , can you help?
-5.14

Bench note: what hERG current change (%, negative = inhibition) at 10uM did CCOC(=O)c1c(CN2CCCCC2C)oc2ccc(OC)cc12.Cl (centres unmarked) show?
-58.9

I'd like to know its hERG current change (%, negative = inhibition) at 10uM. The molecule in question is CCCc1cc(=O)oc2cc(C)cc(OC(C)C(=O)NCc3ccccn3)c12 (centres unmarked)
-8.3

Suppose we examine the molecule Cn1cc(C(O)CN2CCCCC2)c2ccccc21 (centres unmarked) ; what hERG current change (%, negative = inhibition) at 10uM value has been reported?
9.26

Fill in the blank: the reported hERG current change (%, negative = inhibition) at 10uM of `CCN(CC)CCOC(=O)c1c(C)oc2ccc(OC)cc12.Cl` is ____.
-36.6

Please report the recorded hERG current change (%, negative = inhibition) at 10uM for Cc1c(NC(=O)C(C)OC(=O)c2ccc(Cl)nc2)c(=O)n(-c2ccccc2)n1C (centres unmarked) .
-2.18

Return reported hERG current change (%, negative = inhibition) at 10uM; argument: `CCC(=O)N(CCc1ccccc1)Cc1cc2cccc(C)c2[nH]c1=O`
-14.4

Consider the molecule shown here: `COc1ccccc1NC(=O)CSc1nc2sc(C)c(C)c2c(=O)n1C` What is its recorded hERG current change (%, negative = inhibition) at 10uM?
6.42

Look up hERG current change (%, negative = inhibition) at 10uM: O=C(NCC1CCCCC1)C1(CC2CC(c3cccc(Br)c3)=NO2)CCNCC1 (centres unmarked)
-24.1

I am curious: what hERG current change (%, negative = inhibition) at 10uM value has been reported for `Cc1ccc(S(=O)(=O)NC(=O)C2CCCCC2)cc1` ?
14.3

Which measured hERG current change (%, negative = inhibition) at 10uM value corresponds to `CCOC(=O)c1c(CN(CC)CC)oc2ccc(OC)cc12` ?
-61.9

Given the molecule `Cc1ccc(C)c2[nH]c(=O)c(CN(CCCN(C)C)C(=O)NCc3ccccc3)cc12` , what is its reported hERG current change (%, negative = inhibition) at 10uM?
-52.2

Report hERG current change (%, negative = inhibition) at 10uM for O=C(Cc1ccc(F)cc1)N1CCC(CC2CC(c3cccc(Br)c3)=NO2)(C(=O)NCC2CCCCC2)CC1 (centres unmarked) please.
-8.67

* * *

Target: human ether-à-go-go-related gene (hERG) potassium channel (human, UniProt Q12809)
Sequence (Q12809 whole entry, looked up): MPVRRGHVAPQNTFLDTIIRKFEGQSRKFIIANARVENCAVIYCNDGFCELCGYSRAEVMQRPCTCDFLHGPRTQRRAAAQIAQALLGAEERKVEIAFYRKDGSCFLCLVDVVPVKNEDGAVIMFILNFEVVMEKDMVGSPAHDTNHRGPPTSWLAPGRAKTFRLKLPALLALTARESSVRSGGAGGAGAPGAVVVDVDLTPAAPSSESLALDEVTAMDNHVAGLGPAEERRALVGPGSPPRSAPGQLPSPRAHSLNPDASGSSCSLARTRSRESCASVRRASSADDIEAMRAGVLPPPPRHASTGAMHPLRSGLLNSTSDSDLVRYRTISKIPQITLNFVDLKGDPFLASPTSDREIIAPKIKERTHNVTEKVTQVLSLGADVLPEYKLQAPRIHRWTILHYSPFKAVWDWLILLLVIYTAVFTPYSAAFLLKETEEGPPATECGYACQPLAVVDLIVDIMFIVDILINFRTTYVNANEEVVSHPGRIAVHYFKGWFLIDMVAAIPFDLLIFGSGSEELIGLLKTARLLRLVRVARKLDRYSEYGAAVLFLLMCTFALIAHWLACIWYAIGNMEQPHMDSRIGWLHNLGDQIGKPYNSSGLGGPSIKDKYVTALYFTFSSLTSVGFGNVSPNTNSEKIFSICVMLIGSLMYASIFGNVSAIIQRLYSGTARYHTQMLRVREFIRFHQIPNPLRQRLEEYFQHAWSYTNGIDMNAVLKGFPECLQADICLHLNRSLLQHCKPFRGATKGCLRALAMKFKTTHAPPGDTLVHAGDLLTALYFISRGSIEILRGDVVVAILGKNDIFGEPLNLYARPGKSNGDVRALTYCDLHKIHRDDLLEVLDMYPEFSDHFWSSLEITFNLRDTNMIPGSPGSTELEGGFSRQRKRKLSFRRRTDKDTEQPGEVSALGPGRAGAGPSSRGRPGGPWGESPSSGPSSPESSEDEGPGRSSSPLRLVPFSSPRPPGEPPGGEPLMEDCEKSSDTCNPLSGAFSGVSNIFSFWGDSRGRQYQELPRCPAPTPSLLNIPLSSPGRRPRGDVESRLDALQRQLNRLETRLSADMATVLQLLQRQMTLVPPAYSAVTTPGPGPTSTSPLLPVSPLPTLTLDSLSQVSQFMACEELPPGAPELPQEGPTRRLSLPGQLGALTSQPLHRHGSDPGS
Assay: primary screen, population patch clamp on CHO cells stably expressing hERG; higher = less effect of the substance
Out of some 310,000 compounds screened, about 14,000 (4.5%) showed an effect of 50% or more. Effects have a minus sign here. The sample holds strong results, similar compounds and a random draw of the others, so the mix is not that of the screen.
Measured hERG current change (%, negative = inhibition) at 10uM values are reported for all entries that follow.
Your answer should be a plain number; it is taken to be in %.

Observe how each entry below is paired with its result.
{"columns": ["COMPOUND", "UNIT_DESCRIPTOR", "EXPERIMENTAL_RESULT"],
 "data": [
  ["CCCCNS(=O)(=O)c1ccc2nc(-c3cccs3)cc(C(=O)NCC(OC)OC)c2c1", "%", 9.85],
  ["O=C(NCc1ccco1)c1ccc(S(=O)(=O)c2cccc(S(=O)(=O)N3CCOCC3)c2)cc1", "%", 2.58],
  ["CC(C)COC(=O)C1C2C=CC3(CN(C4CCCC4)C(=O)C13)O2 (stereo not drawn)", "%", -15.4]
]}

What hERG current change (%, negative = inhibition) at 10uM value was documented for this compound, Cc1ccc(C2(C(F)(F)F)N=C3Sc4cc(C)cc(C)c4N3C(=O)N2)cc1 (stereo not drawn) ?
-4.05

Which hERG current change (%, negative = inhibition) at 10uM is listed for `CN(Cc1c(C(=O)N2CCc3ccccc3C2)nc2ccc(Cl)cn12)C(C1CC1)C1CC1` ?
-45.9

* * *

Reported hERG current change (%, negative = inhibition) at 10uM is given for each of the following compounds.
Target: human ether-à-go-go-related gene (hERG) potassium channel (human);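 also: peak tail current of the secondary pulse compared with the same well before compound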
Assay: primary screen, population patch clamp on CHO cells stably expressing hERG; higher = less effect of the substance
Out of some 310,000 compounds screened, about 14,000 (4.5%) showed an effect of 50% or more. The effect is printed as a negative number. The full list was thinned out, with strong results kept by preference.
Your answer is read as %, so omit the unit and give the number.

Solved cases below.
{"columns": ["COMPOUND", "EXPERIMENTAL_RESULT"],
 "data": [
  ["COc1cc(CN2CCCC(CO)(Cc3ccccc3)C2)ccc1O (centres unmarked)", -17.6],
  ["Cc1ccc(OC(C)C(=O)Nc2ccccc2C(=O)N2CCN(C)CC2)cc1 (centres unmarked)", -5.11],
  ["COc1cc(CN2CCCC(CO)(Cc3ccccc3C)C2)cc2c1OCO2 (centres unmarked)", -27.9],
  ["CCOc1ccccc1N1CCN(C(=O)COc2ccc3c(C)cc(=O)oc3c2)CC1", -6.28],
  ["Cc1cccc(N2CCN(C(=O)COc3ccc4c(C)cc(=O)oc4c3C)CC2)c1C", 13.6],
  ["Cc1nn(C)c(Cl)c1CN1CCCC(CO)(Cc2cccc(Cl)c2)C1 (centres unmarked)", -59.8],
  ["Fc1ccc(-[n+]2nc(Nc3ccccc3)sc2-c2ccc(OCc3ccccc3)cc2)cc1.[Cl-]", -20.5],
  ["Cc1ccc(-c2nc(CS(=O)(=O)CC(=O)NCc3cccc(F)c3)c(C)o2)cc1", 9.53],
  ["O=C(COc1ccc2ccc(=O)oc2c1)N1CCN(C(=O)C2COc3ccccc3O2)CC1 (centres unmarked)", -46.2],
  ["CCCc1cc(=O)oc2cc(OCC(=O)N3CCN(C(=O)C4COc5ccccc5O4)CC3)ccc12 (centres unmarked)", -65.9]
]}

Notebook: pull reported hERG current change (%, negative = inhibition) at 10uM for human ether-à-go-go-related gene (hERG) potassium channel (human), entry `Cc1c(C)c2ccc(OCC(=O)N3CCC(C(=O)O)CC3)cc2oc1=O`
-6.41

Hi! What's the reported hERG current change (%, negative = inhibition) at 10uM for COc1ccc(CN2CCCC(CO)(Cc3cccc(Cl)c3)C2)cc1OC (centres unmarked) on human ether-à-go-go-related gene (hERG) potassium channel (human)?
-63.2

Which hERG current change (%, negative = inhibition) at 10uM is reported with human ether-à-go-go-related gene (hERG) potassium channel (human) for this entry: CC(C)(O)C#Cc1ccc(CN2CCCC(CO)(Cc3cccc(Cl)c3)C2)cc1 (centres unmarked) ?
-6.28

Lab request: please report hERG current change (%, negative = inhibition) at 10uM under test system human ether-à-go-go-related gene (hERG) potassium channel (human) for `Nc1nc(N)nc(-c2cc(O)ccc2O)n1`;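 also: peak tail current of the secondary pulse compared with the same well before compound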
10.3

Please state recorded hERG current change (%, negative = inhibition) at 10uM (tested on human ether-à-go-go-related gene (hERG) potassium channel (human)) of `C#CCSc1cc(C(F)(F)F)nc(-c2ccccn2)n1`;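 also: peak tail current of the secondary pulse compared with the same well before compound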
-62.9

* * *

Each entry below carries its reported hERG current change (%, negative = inhibition) at 10uM.
Target: human ether-à-go-go-related gene (hERG) potassium channel (human, UniProt Q12809);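 also: peak tail current of the secondary pulse compared with the same well before compound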
Assay: primary screen, population patch clamp on CHO cells stably expressing hERG; higher = less effect of the substance
About 14,000 (4.5%) of roughly 310,000 compounds showed an effect of 50% or more. The effect is printed as a negative number. Many of the other results were omitted from the sample, so strong results are more common in it than they were.
Field: numeric (%). Do not append units.

{"columns": ["MOLECULE", "EXPERIMENTAL_RESULT"],
 "data": [
  ["CCCN1C2CCCC1CC(NC(=O)c1ccc(F)cc1)C2 (centres unmarked)", -55.3],
  ["COc1ccc(C(=O)NCCNc2nc3ccc(C)cc3cc2C#N)cc1", 4.99]
]}

Which hERG current change (%, negative = inhibition) at 10uM value is on record for `COC(=O)c1c(C)[nH]c(C=O)c1-c1ccccc1` ?
10.3
